- ASSAY PROTOCOL: yeast display, Sf9 membrane polyspecificity reagent, FACS + sequencing; frameworks hold sequencing errors
MEASUREMENT TYPE: polyreactivity (PSR sort gate)

1. QVQLVESGGGLVQAGGSLRLSCAASGFTFVYYTMGWYRPAPWKERELVAAITWRGSTYYADSVKGRFTISRDNAKNTVYLQMNSLKPEDTAVYYCAARYRVLLRHREYDYWGQGTQVTVSS; high polyreactivity
2. QVQLVESGGGLVQAGGSLRLSCAASGNIFDGYAMGWYRQAPGKERELVAAISLSGGSTNYADSVKGRFTISRDNAKNTVYLQMNSLKPEDTAVYYCNARNWYYEGDYWGQGTQVTVSS; high polyreactivity

Values from the nanobody polyreactivity screen of Harvey et al. (2022)
